- Tested on: Recombinant NADH/NADPH dehydrogenase
- assay info: NADH/NADPH dehydrogenase-mediated ROS generation assay
- Type: biochemical
- condition parameters: 30 μM, 4 h at 37°C; presence of NADH/NADPH dehydrogenase
metric name: H2O2 generation, NADH/NADPH dehydrogenase + (µM)

                                   compound  data_value
0  O=C1C=C(SCCO)C(=O)c2ccccc21 [compound 60]        12.7
1  CC(C)(C)NC1=C(Cl)C(=O)c2ccccc2C1=O [compound 13]         4.3
2  COCCNC1=C(Cl)C(=O)c2ccccc2C1=O [compound 21]         6.4
3  CC1=C(N2CC2)C(=O)c2ccccc2C1=O [compound 55]         3.3
4  O=C1C(Cl)=C(Nc2ccccc2)C(=O)c2ccccc21 [compound 39]         2.8
5    CCNC1=CC(=O)c2ncccc2C1=O [compound 66]        10.3
6  CCCCCCCNC1=C(Cl)C(=O)c2ccccc2C1=O [compound 8]         2.8
7  CCCC(=O)NC1=C(Cl)C(=O)c2ccccc2C1=O [compound 31]         9.0
8  CCCCC(=O)NC1=C(Cl)C(=O)c2ccccc2C1=O [compound 32]        10.6
9  COC1=C(N(C)C)C(=O)c2ccccc2C1=O [compound 53]         2.5

###

- assay info: in vitro
- condition parameters: human, primary hepatocytes
Some compounds, each annotated with its measured CC50.
metric name: CC50 (µM)

In [3]: df
Out[3]:
                                   compound  unit_abbreviation  data_value
0       O=C1C(Cl)=C(Nc2nccs2)C(=O)c2ccccc21                 µM          26
1        CCCC(=O)NC1=C(Cl)C(=O)c2ccccc2C1=O                 µM         1.6
2  O=C1C(Nc2ccccc2)=CC(=O)c2ncccc21 [compound 67, reference compound]                 µM        17.8
3              CCNC1=C(Cl)C(=O)c2ccccc2C1=O                 µM        81.9
4       Cc1ccccc1NC1=C(Cl)C(=O)c2ccccc2C1=O                 µM        24.5
5               O=C1C=C(SCCO)C(=O)c2ccccc21                 µM         3.3
6      O=C1C(Cl)=C(Nc2ccccc2)C(=O)c2ccccc21                 µM         2.3
7         CCCCCCCNC1=C(Cl)C(=O)c2ccccc2C1=O                 µM        78.6
8        CC(C)(C)NC1=C(Cl)C(=O)c2ccccc2C1=O                 µM        29.9
9       CCCCC(=O)NC1=C(Cl)C(=O)c2ccccc2C1=O                 µM         2.2

###

- Tested on: hepatocytes
- assay info: Hydrogen peroxide cell-based assay (ROS induction), hepatocytes
- Set-up: species or system Human
- condition parameters: 30 μM; hydrogen peroxide level relative to DMSO-treated cells (100%)
Would you please tag the item 1 when its ROS increase, % Hepatocytes is 200% or above, and 0 when it is below?

>>> print(df.to_string())
                                    compound  assayed_system  class_name
 0         CCCCCCCNC1=C(Cl)C(=O)c2ccccc2C1=O     hepatocytes           0
 1            COC1=C(N(C)C)C(=O)c2ccccc2C1=O     hepatocytes           0
 2       CCCCC(=O)NC1=C(Cl)C(=O)c2ccccc2C1=O     hepatocytes           1
 3               O=C1C=C(SCCO)C(=O)c2ccccc21     hepatocytes           1
 4        CCCCOCCCNC1=C(Cl)C(=O)c2ccccc2C1=O     hepatocytes           0
 5        CC(C)(C)NC1=C(Cl)C(=O)c2ccccc2C1=O     hepatocytes           0
 6    O=C1C(Cl)=C(NCCc2ccccc2)C(=O)c2ccccc21     hepatocytes           0
 7            COCCNC1=C(Cl)C(=O)c2ccccc2C1=O     hepatocytes           0
 8                NC1=C(Cl)C(=O)c2ccccc2C1=O     hepatocytes           0
 9  O=C1C(Nc2ccccc2)=CC(=O)c2ncccc21 [compound 67, reference compound]     hepatocytes           0
10           O=C1C(Cl)=C(NCCO)C(=O)c2ccccc21     hepatocytes           0
11       O=C1C(Cl)=C(Nc2nccs2)C(=O)c2ccccc21     hepatocytes           0
12       Cc1ccccc1NC1=C(Cl)C(=O)c2ccccc2C1=O     hepatocytes           0
13                  CCNC1=CC(=O)c2ncccc2C1=O     hepatocytes           0
14              CCNC1=C(Cl)C(=O)c2ccccc2C1=O     hepatocytes           0
15        CCCC(=O)NC1=C(Cl)C(=O)c2ccccc2C1=O     hepatocytes           1
16      O=C1C(Cl)=C(Nc2ccccc2)C(=O)c2ccccc21     hepatocytes           0

###

- Test system: primary acute myeloid leukemia (AML) cells obtained from patients
- assay info: Kinase inhibitor library screening with and without NSC130362, primary AML cells
- Assay type: cell-based, Human
- condition parameters: ratio of EC50 for inhibitor to EC50 for inhibitor/NSC130362 combination; NSC130362 10 μM; Screen N 3
The label is Y for EC50 decrease, fold (Screen N 3) below 1 fold and N for EC50 decrease, fold (Screen N 3) equal to or exceeding 1 fold.

molecule	class name
CCn1c(-c2nonc2N)nc2c(C#CC(C)(C)O)ncc(OC[C@H]3CCCNC3)c21 [GSK690693]	N
COc1cc2nccc(Oc3ccc(NC(=O)Nc4cc(C)on4)c(Cl)c3)c2cc1OC [Tivozanib (AV-951)]	N
CNC(=O)c1cc(Oc2ccc(NC(=O)Nc3ccc(Cl)c(C(F)(F)F)c3)c(F)c2)ccn1 [Regorafenib (BAY 73-4506)]	Y
COc1cc2nccc(Oc3ccc(NC(=O)NC4CC4)c(Cl)c3)c2cc1C(N)=O [Lenvatinib]	N
CN(C)CC(=O)N1CCC(c2ccc(NC(=O)c3nc(C#N)c[nH]3)c(C3=CCCCC3)c2)CC1 [JNJ-28312141]	N
Nc1ncn([C@@H]2O[C@H](CO)[C@@H](O)[C@H]2O)c(=O)n1 [Azacytidine]	N
c1cn2cc(-c3ccc4cn[nH]c4c3)nc(Nc3ccc(N4CCOCC4)cc3)c2n1 [Entospletinib (GS-9973)]	Y
C=CCNC1=C2C[C@@H](C)C[C@H](OC)[C@H](O)[C@@H](C)/C=C(\C)[C@H](OC(N)=O)[C@@H](OC)/C=C\C=C(/C)C(=O)NC(=CC1=O)C2=O [17-AAG (Tanespimycin)]	N
CCN(CCO)CCCOc1ccc2c(Nc3cc(CC(=O)Nc4cccc(F)c4)[nH]n3)ncnc2c1 [Barasertib (AZD1152-HQPA)]	N
COc1cc2c(Oc3ccc(NC(=O)C4(C(=O)Nc5ccc(F)cc5)CC4)cc3F)ccnc2cc1OCCCN1CCOCC1 [Foretinib (XL880)]	N
CN(C)C[C@@H]1CCn2cc(c3ccccc32)C2=C(C(=O)NC2=O)c2cn(c3ccccc23)CCO1 [LY-333531]	N
Oc1cccc(-c2nc(N3CCOCC3)c3oc4ncccc4c3n2)c1 [PI-103]	N
O=C(Nc1cccc(C(F)(F)F)c1)Nc1cc(S(=O)(=O)NC2CC2)ccc1-c1ccsc1 [AGI-6780]	N

###

- Tested on: primary acute myeloid leukemia (AML) cells obtained from patients
- assay info: Kinase inhibitor library screening with and without NSC130362, primary AML cells
- Type: cell-based, Human
- condition parameters: ratio of EC50 for inhibitor to EC50 for inhibitor/NSC130362 combination; NSC130362 10 μM; Screen N 3
metric name: EC50 decrease, fold (Screen N 3) (fold)

>>> df
                                         mol  unit_abbreviation  data_value
 0  O=C(NC1CCNCC1)c1[nH]ncc1NC(=O)c1c(Cl)cccc1Cl               fold         1.1
 1  CC[C@H](Nc1ncnc2[nH]cnc12)c1nc2cccc(F)c2c(=O)n1-c1ccccc1               fold       356.4
 2  CC[C@@H]1C(=O)N(C)c2cnc(Nc3ccc(C(=O)N[C@H]4CC[C@H](N5CCN(CC6CC6)CC5)CC4)cc3OC)nc2N1C(C)C               fold        68.5
 3  NC(=O)c1ccc(-c2nc(-c3ccc4c(c3)OCO4)c(-c3ccccn3)[nH]2)cc1               fold      1058.2
 4  COc1cc(Nc2ncc3c(n2)-c2ccc(Cl)cc2C(c2c(F)cccc2OC)=NC3)ccc1C(=O)O               fold         0.3
 5  NC(=O)c1cnc(N[C@@H]2CCCC[C@@H]2N)nc1Nc1cccc(-n2nccn2)c1               fold       265.0
 6  O=C(NOCC1CC1)c1ccc(F)c(F)c1Nc1ccc(I)cc1Cl               fold      0.0667
 7  Cc1c[nH]c(-c2cnc(NCCNc3ccc(C#N)cn3)nc2-c2ccc(Cl)cc2Cl)n1               fold         1.0
 8  CC(=O)c1c(C)c2cnc(Nc3ccc(N4CCNCC4)cn3)nc2n(C2CCCC2)c1=O               fold         1.8
 9  O=C(O)c1ccc2c3c1cccc3c(=O)n1c3ccccc3nc21               fold    0.000816
10  Cc1cc(Nc2cc(N3CCN(C)CC3)nc(Sc3ccc(NC(=O)C4CC4)cc3)n2)n[nH]1               fold         0.9
11  CS(=O)(=O)c1ccc(C(=O)Nc2ccc(Cl)c(-c3ccccn3)c2)c(Cl)c1               fold         1.0
12  C[C@H](NC(=O)Cc1cc(F)cc(F)c1)C(=O)N[C@@H]1C(=O)N(C)c2ccccc2-c2ccccc21               fold       0.374
13  O=c1cc(-c2cccc3c2Sc2ccccc2S3)oc(N2CCOCC2)c1               fold       959.3
14  Nc1nc(N)c2nc(-c3cccc(O)c3)c(-c3cccc(O)c3)nc2n1               fold         1.0
15  Nc1nc(Nc2ccc(S(N)(=O)=O)cc2)nn1C(=O)c1c(F)cccc1F               fold       0.182

Sourced from paper PMC6433232
